For each of the binders below, state its koff.
# STUDY_TARGET: T1, human CD22-Fc fusion protein (human, UniProt P20273 20-687, limits assumed)
# T1 construct: also called recombinant CD22-Fc fusion protein; not shown: Fc part
# T1 sequence (looked up): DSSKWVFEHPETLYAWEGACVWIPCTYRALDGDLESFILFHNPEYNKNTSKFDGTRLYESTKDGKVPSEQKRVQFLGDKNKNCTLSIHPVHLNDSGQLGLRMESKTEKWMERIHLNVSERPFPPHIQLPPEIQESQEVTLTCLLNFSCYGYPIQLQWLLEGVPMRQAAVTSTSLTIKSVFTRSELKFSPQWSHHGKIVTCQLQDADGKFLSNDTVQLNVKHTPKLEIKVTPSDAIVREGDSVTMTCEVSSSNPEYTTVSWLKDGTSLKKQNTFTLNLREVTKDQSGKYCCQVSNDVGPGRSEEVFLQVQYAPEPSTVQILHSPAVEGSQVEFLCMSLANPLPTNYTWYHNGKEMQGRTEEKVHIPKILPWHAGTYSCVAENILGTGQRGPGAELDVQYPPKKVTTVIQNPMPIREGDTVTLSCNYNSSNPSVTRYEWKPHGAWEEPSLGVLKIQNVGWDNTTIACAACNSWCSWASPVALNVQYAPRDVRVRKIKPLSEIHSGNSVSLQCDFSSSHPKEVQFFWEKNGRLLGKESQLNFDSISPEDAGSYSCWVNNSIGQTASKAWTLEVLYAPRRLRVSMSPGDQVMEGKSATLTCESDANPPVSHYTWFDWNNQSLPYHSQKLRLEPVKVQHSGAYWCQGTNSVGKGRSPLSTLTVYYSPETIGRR
# ASSAY_METHOD_TEXT: SPR Biacore T200; CD22-Fc captured on Protein G chip, scFv as analyte;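 note: run in 1×HBST buffer, with the response of reference flow cell 1 subtracted from the CD22 capture cell and kinetics fitted in Biacore T200 evaluation software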
Numbers only, in s⁻¹.

INSERT INTO measurements (binder, test_readout, unit, observed_measurement) VALUES
  ('EP97-G05 scFv (scFv, VH-VL orientation; also called EP097-G05; not shown: C-terminal flag and 6xHIS tag) scFv: EVQLVQSGAEVKKPGASVKVSCKASGYTFTSYGISWVRQAPGQGLEWMGWISAYNGNTNYAQKLQGRVTMTTDTSTSTAYMELRSLRSDDTAVYYCARDYGDPSGDDYWGQGTLVTVSSGGGGSGGGGSGGGGSEIVLTQSPATLSVSPGEGVTLSCRASQSVSSNLAWYQQRPGQAPRLLIYGASIKATDVPDRFSGGGSGTDFTLSISNLQSEDFAVYYCQQYHTWPPVTFGGGTKVEIK', 'koff', 's⁻¹', '4.19e-05');

Value of koff reported for the binder EP160-G04 scFv (scFv, VH-VL orientation; not shown: C-terminal flag and 6xHIS tag) scFv: QVQLVQSGAEVKKPGASVKVSCKASGYTFSSYGITWVRQAPGQGLEWMGWISAYNGNTNYAQKFQGRVTLTTDTSTSIAYMELRSLTSDDTAVYYCATGGQEDYWGQGTLVTVSSGGGGSGGGGSGGGGSEIVMTQSPATLSVSPGERATLSCRASQSVSSNLAWYQQKPGQAPRLLIYDASTRATGIPARFSGSGSGTEFTLTISSLQSEDFAVYYCQQYHNWAPLTFGGGTKVGIK is 4.03e-05
